I'd be grateful if you could share measured abundance fitness for these entries.
B1: POU domain, class 2, transcription factor 2, residues 200 to 269; numbered along this chain, P09086 (parent)
chain: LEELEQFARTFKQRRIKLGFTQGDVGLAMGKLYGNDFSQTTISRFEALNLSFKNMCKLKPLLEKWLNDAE

- Variants of: B1
- assay_remarks: abundance fitness (aPCA) (normalised: wild type 0, dead -1); higher = more abundant; growth selection in yeast, the domain comes from the species named
- test_conditions: Homo sapiens
Keep it simple and answer with nothing but the number.

Exercise: Looking for the measured abundance fitness of LEELEQFARTFKQVRIKLGFTQGDVGLAMGKLYGNDFSQTTISRFEALNLSFKNMCKLKPLLEKWLNDAE [R14V] , can you help?
Key: -0.128

Exercise: Next record, please: LEELEQFARTFKQRRIKLGFTQGDVGLAMGKLYGNDFSQTTISRFEALNLSFKNVCKLKPLLEKWLNDAE [M55V]
Key: -0.142

Exercise: Next record, please: LEELEQFARTFKQRRIKLGFTQMDVGLAMGKLYGNDFSQTTISRFEALNLSFKNMCKLKPLLEKWLNDAE [G23M]
Key: -0.01

Exercise: Next record, please: LEELMQFARTFKQRRIKLGFTQGDVGLAMGKLYGNDFSQTTISRFEALNLSFKNMCKLKPLLEKWLNDAE [E5M]
Key: 0.048

Exercise: Next record, please: LEELEQFARTFKQRRIKLGFTQGDVGLAMGKLYGNDFSQTTISRFEALKLSFKNMCKLKPLLEKWLNDAE [N49K]
Key: -0.007

Exercise: Next record, please: LEELEQFARTFKQRRIKLGFTQGDVGLAMGKLYGEDFSQTTISRFEALNLSFKNMCKLKPLLEKWLNDAE [N35E]
Key: 0.106

Exercise: Next record, please: LEELEQFARTFKQRRIKLGFTQGDVGLAMGKLYGNDFSQTTISRFEAQNLSFKNMCKLKPLLEKWLNDAE [L48Q]
Key: -0.011

Exercise: Next record, please: LELLEQFARTFKQRRIKLGFTQGDVGLAMGKLYGNDFSQTTISRFEALNLSFKNMCKLKPLLEKWLNDAE [E3L]
Key: -0.137

Exercise: Next record, please: LEELEKFARTFKQRRIKLGFTQGDVGLAMGKLYGNDFSQTTISRFEALNLSFKNMCKLKPLLEKWLNDAE [Q6K]
Key: 0.079

Exercise: Next record, please: LEELEQFARTFKQRRIKLGFHQGDVGLAMGKLYGNDFSQTTISRFEALNLSFKNMCKLKPLLEKWLNDAE [T21H]
Key: -0.286

Exercise: Next record, please: LEELEQFARTFKQRRIKLGFTQGDVGLAMGKLYGNDFSQTTITRFEALNLSFKNMCKLKPLLEKWLNDAE [S43T]
Key: -0.05
